Tested on: LP-1 cells
Experiment: Presence of 5,6-EC in cells by GC/MS
Assay type: cell-based, human
Details: LP-1, absence of Vit E, 48 h; 10 μM drug (PBPE 40 μM)
endpoint: 5,6-EC

CN(C)CCOc1ccc([C@H]2C[C@]3(C)[C@@H](O)CC[C@H]3[C@@H]3CCc4cc(O)ccc4[C@H]32)cc1 ... +
CC/C(=C(\c1ccc(O)cc1)c1ccc(OCCN(C)C)cc1)c1ccccc1 ... +
CC/C(=C(\c1ccccc1)c1ccc(OCCN(C)C)cc1)c1ccccc1 ... +
Cl.c1ccc(Cc2ccc(OCCN3CCCC3)cc2)cc1 ... +
